Experiment: Toxicity liver stage against HepG2, at 10uM
Assay type: cell-based
Design: test concentration 10 uM, cell line HepG2-A16-CD81EGFP
Details: human, HepG2-A16-CD81EGFP cells; read-out: INHIBITION
quantityKind: cytotoxicity at 10 µM (%)
Numbers only here, please. The scale is %.

Please review the entries below; each comes with its answer.
{"molecule": "COc1nn(C)c2c1CCCN(C(=O)c1ccc[nH]1)C2", "cytotoxicity at 10 µM, %": -0.966}
{"molecule": "Cc1ccc(C2(CN3CCN(c4ncccn4)CC3)CCNCC2)nc1", "cytotoxicity at 10 µM, %": -10.1}
{"molecule": "Cc1cc(C)n(Cc2cc(C(=O)N3CCCC3c3ccccn3)n[nH]2)n1 (stereo unspecified)", "cytotoxicity at 10 µM, %": 0.739}
{"molecule": "CN(C)S(=O)(=O)N1C[C@H]2CC[C@@H](C1)N(C/C=C/c1ccc(F)cc1)C2", "cytotoxicity at 10 µM, %": -1.23}
{"molecule": "CCc1cnc(NCc2nc(COC)no2)nc1", "cytotoxicity at 10 µM, %": 7.36}
{"molecule": "Cc1cnn(CC2CCCN2C(=O)c2ccccc2-n2cnnn2)c1 (stereo unspecified)", "cytotoxicity at 10 µM, %": -35.7}

Query :: Return value of cytotoxicity at 10 µM for input CS(=O)(=O)N1CCC2(CC1)CC(CC(=O)NC1CC1)c1ccccc12 (stereo unspecified) , no commentary.
Result :: -0.105

Query :: Could you please provide reported cytotoxicity at 10 µM for CCn1ccnc1CN1CCCN(C(=O)Cn2nc(C)cc2C)CC1 ? Thanks!
Result :: -0.505

Query :: Provide only the value of recorded cytotoxicity at 10 µM for Nc1nc2c(c3c1C(=O)NC3=O)CCCC2
Result :: 10.2

Query :: Give reported cytotoxicity at 10 µM value for O=C1CC(c2ccccc2C(F)(F)F)c2sc(N3CCOCC3)nc2N1 (stereo unspecified)
Result :: 9.18

Query :: Retrieve cytotoxicity at 10 µM measured for CS(=O)(=O)N1CCN(CC(O)COc2ccc(F)cc2)CC1 (stereo unspecified) and print it.
Result :: 6.11

---

Assay: Toxicity liver stage against HepG2, at 10uM
Format: cell-based
Design: test concentration 10 uM, cell line HepG2-A16-CD81EGFP
Settings: human, HepG2-A16-CD81EGFP cells; read-out: INHIBITION
quantityKind: cytotoxicity at 10 µM (%)
Report the figure in % without appending any unit label.

Query :: Return the recorded cytotoxicity at 10 µM value; entry: CCOc1ccc(NC(=O)N2CCC(n3cncn3)CC2)cc1Cl
Result :: -7.22

Query :: State, in one line, measured cytotoxicity at 10 µM of CCc1cc(=O)[nH]c(-c2ccc(NC(C)CN3CCOCC3)nc2)n1 (stereo unspecified)
Result :: -145

Query :: Look up and report measured cytotoxicity at 10 µM for this entry: Cc1ccsc1C(=O)NCc1ccnc(OCC(F)(F)F)c1
Result :: -6.19

Query :: Consider the compound O=C1CC(c2ccncc2)C2(CCN(C(=O)NC3CC3)CC2)N1 (stereo unspecified) and give its recorded cytotoxicity at 10 µM.
Result :: -3.46

Query :: Complete the entry with cytotoxicity at 10 µM for CNC(=O)CN1CCOC(c2ccccc2C(F)(F)F)C1 (stereo unspecified)
Result :: 0.71

Query :: Report cytotoxicity at 10 µM, nothing else, for this compound: CNC(=O)[C@H]1C[C@@H]2CN(C(=O)c3ccsc3)C[C@@H]2N1S(C)(=O)=O
Result :: -2.42

Query :: Given the compound O=C(c1c[nH]c(=O)c(Cl)c1)N1C[C@H]2CC[C@@H](C1)N(Cc1ccccc1)C2 , write its reported cytotoxicity at 10 µM.
Result :: -14.5

Query :: Dear colleague, please send me the reported cytotoxicity at 10 µM for CCC(=O)NC1CCCN(C(=O)c2ccc(OCC3CC3)nc2)C1 (stereo unspecified) when you can.
Result :: 15.2

Query :: Query cytotoxicity at 10 µM for Cc1nn(C)c(C)c1OCC(=O)N1CCCc2c(F)ccc(F)c21
Result :: 2.27

Query :: Return cytotoxicity at 10 µM (reported value) for this compound: Cc1c(CNCc2nn(-c3ccccc3)c3c2CCC3)cc(C#N)n1C
Result :: 13.3

Query :: // Input: O=C(NC1CCS(=O)(=O)C1)N1CCN(c2cnccn2)CC1 (stereo unspecified) . Output its cytotoxicity at 10 µM only.
Result :: -0.685
